Origin of measurements: the supplement of paper PMC9938120

Please provide measured drug sensitivity score for the entries that follow.
# Test system: FMOC11 (patient-derived high-grade serous ovarian cancer cells)
# assay-notes: drug sensitivity score (DSS3, normalised partial AUC of % inhibition dose-response) (DSS (score)); higher = more sensitive (stronger inhibition of viability); extreme values may be limits of the assay
# experimental-setup: 72 h; library: FO5A; assay format: 2D, 384-well, CellTiter-Glo

If you can, please state the reported drug sensitivity score value of COc1cc(Nc2ncc(F)c(Nc3ccc4c(n3)N(COP(=O)(O)O)C(=O)C(C)(C)O4)n2)cc(OC)c1OC [Fostamatinib] .
2.6

Further, for CN1CCc2c(c3ccccc3n2Cc2ccc(C(=O)NO)cc2)C1 [Tubastatin A] ?
1.7

Further, for O=C(O)CC1CC(c2ccccc2)=NO1 (stereo not drawn) [VGX-1027] ?
0

Further, for CCc1nc(C(N)=O)c(Nc2ccc(N3CCC(N4CCN(C)CC4)CC3)c(OC)c2)nc1NC1CCOCC1 [Gilteritinib] ?
1.9

Further, for Cc1ccc(NC(=O)c2ccc(CN3CCN(C)CC3)cc2)cc1Nc1nc(-c2cccnc2)cs1 [Masitinib] ?
3.9

Further, for O=C(Nc1cnn2ccc(N3CCC[C@@H]3c3cc(F)ccc3F)nc12)N1CC[C@H](O)C1 [Larotrectinib] ?
0

Further, for O=C(O)CCCCC(CCSCc1ccccc1)SCc1ccccc1 (stereo not drawn) [CPI-613] ?
0

Further, for COc1cc([C@@H]2c3cc4c(cc3[C@@H](O[C@@H]3O[C@@H]5CO[C@@H](c6cccs6)O[C@H]5[C@H](O)[C@H]3O)[C@H]3COC(=O)[C@H]23)OCO4)cc(OC)c1O [Teniposide] ?
0

Further, for COc1cc(OC)cc(N(CCNC(C)C)c2ccc3ncc(-c4cnn(C)c4)nc3c2)c1 [Erdafitinib] ?
0.7

Further, for Cc1cnc(-c2ccccc2C(C)C)nc1NCc1ccc(-n2ccnn2)cc1 [ML323] ?
0

Further, for CCN(CC)CCN(Cc1ccc(-c2ccc(C(F)(F)F)cc2)cc1)C(=O)Cn1c(SCc2ccc(F)cc2)nc(=O)c2c1CCC2 [Darapladib] ?
0.1

Further, for CC(C)N(C[C@H]1O[C@@H](n2cnc3c(N)ncnc32)[C@H](O)[C@@H]1O)[C@H]1C[C@@H](CCc2nc3cc(C(C)(C)C)ccc3[nH]2)C1 [Pinometostat] ?
0

Further, for Nc1cccc2c1C(=O)N(C1CCC(=O)NC1=O)C2=O (stereo not drawn) [Pomalidomide] ?
0

Further, for C[C@H]1CN(C2COC2)CCN1c1ccc(Nc2cc(-c3ccnc(N4CCn5c(cc6c5CC(C)(C)C6)C4=O)c3CO)cn(C)c2=O)nc1 [GDC-0853] ?
0

Further, for Nc1ncn([C@H]2C[C@H](O)[C@@H](CO)O2)c(=O)n1 [Decitabine] ?
5.3

Further, for COCCNCc1ccc(-c2cc3nccc(Oc4ccc(NC(=S)NC(=O)Cc5ccc(F)cc5)cc4F)c3s2)nc1 [Glesatinib] ?
0

Further, for CC(C)Cn1cnc2c(N)nc3ccccc3c21 [Imiquimod] ?
0

Further, for O[C@H]1CC[C@H](Nc2ncc3nc(Nc4c(F)cc(F)cc4F)n([C@H]4CCOC4)c3n2)CC1 [Tanzisertib] ?
0

Further, for CC[C@H](CO)Nc1nc(NCc2ccccc2)c2ncn(C(C)C)c2n1 [Seliciclib] ?
0

Further, for Cc1cc(Nc2ncnc3ccc(NC4=NC(C)(C)CO4)cc23)ccc1Oc1ccn2ncnc2c1 [Tucatinib] ?
0

Further, for CCCS(=O)(=O)Nc1ccc(F)c(C(=O)c2c[nH]c3ncc(-c4ccc(Cl)cc4)cc23)c1F [Vemurafenib] ?
1.6

Further, for Nc1nc(F)nc2c1ncn2[C@@H]1O[C@H](CO)[C@@H](O)[C@@H]1O [Fludarabine] ?
0

Further, for C[C@@H]1CN(Cc2ccc(F)cc2)[C@@H](C)CN1C(=O)c1cc2c(C(=O)C(=O)N(C)C)cn(C)c2cc1Cl [Talmapimod] ?
0.2
